Where do these numbers come from? They come from PubChem BioAssay.

assay: antimalarial activity against Dd2 strain (AID 2302);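 also: 0% = DMSO untreated growth and 100% = chloroquine plus artemisinin killed control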; conditions: P. falciparum Dd2 in RBCs, LDH growth readout, 72 h; at 2 µM; hits give high values
Activity calls are given as the source filed them.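 The calls were made as follows: active = growth inhibition above 50% at the single 2 µM test dose, taken to imply half-maximal potency below 2 µM; inactive = the rest.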
EXPERIMENTAL_READOUT: growth inhibition

{"columns": ["MOLECULE", "EXPERIMENTAL_READOUT", "READING"],
 "data": [
  ["Cc1cc(N[C@@H](CC(C)C)C(=O)NCc2cccc(F)c2)nc(NCCc2ccccc2)n1", "growth inhibition", "33% (inactive)"],
  ["O=C(Nc1ccc(F)cc1F)NC1CCN(CCCCCNC(=O)[C@@H]2C[C@H]2c2ccc(Cl)c(Cl)c2)CC1", "growth inhibition", "32% (inactive)"],
  ["CC(CN(C)C)C(=O)Nc1cccc(-c2ccc(-c3nc4ccccc4[nH]3)cc2)c1 (centres undefined)", "growth inhibition", "25% (inactive)"],
  ["COc1ccc(-c2ccc(NC(=O)c3ccc(C#N)cc3)cc2)cc1CN(C)CCN(C)C", "growth inhibition", "58% (active)"]
]}

-- ask Field request: growth inhibition | item: CCC(CC)(Cc1ccccc1)NC(=O)[C@H](CC1CCCCC1)Nc1ccc(C#N)c2ccccc12
-- reply 76% (active)

-- ask Next up: O=C([C@H]1C[C@@H]1c1ccccc1)N(Cc1ccc(-c2ccc(CNCCc3ccccc3)cc2)cc1)C1CCNCC1
-- reply 39% (inactive)

-- ask Next up: CCCN(CCCN(CCCN(CCC)C(C)C)c1cc(C)nc(Nc2ccc(Cl)cc2)n1)C(C)C
-- reply 99% (active)

-- ask Next up: O=C(Nc1cccnc1)c1cc(C(=O)Nc2cccnc2)cc([N+](=O)[O-])c1
-- reply 100% (active)

-- ask Next up: COc1cc2c(c(OC)c1[N+](=O)[O-])C=CC1(O2)N(C)c2ccc([N+](=O)[O-])cc2C1(C)C (centres undefined)
-- reply 89% (active)
